- assay-system: UniProt P35408
- protocol-text: hEP4 cAMP Assay
Here the recorded IC50 is given for each entry.

>  <compound>
O=C(O)c1ccc(-c2cc(NCCc3ccc4scc(Cl)c4c3)ncn2)cc1OC1CCC1

>  <units>
µM

>  <IC50>
0.04

$$$$
>  <compound>
CCOc1cc(-c2cc(NCCc3c(OC)cc4c(c3C)OCCO4)ncn2)ccc1CC(=O)O

>  <units>
µM

>  <IC50>
0.048

$$$$
>  <compound>
CCOc1cc(-c2cc(NCCc3ccc4sccc4c3F)ncn2)ccc1OCCC(=O)O

>  <units>
µM

>  <IC50>
0.027

$$$$
>  <compound>
CCCc1cc(-c2cc(NCCc3cc4c(cc3OC)OCCO4)ncn2)ccc1C(C)C(=O)O (racemic)

>  <units>
µM

>  <IC50>
0.236

$$$$
>  <compound>
COc1cc2c(c(C)c1CCNc1cc(-c3ccc(C(=O)O)c(SC)c3)ncn1)OCCO2

>  <units>
µM

>  <IC50>
0.037

$$$$
>  <compound>
CCc1cc(-c2cc(NCCc3c(OC)cc4ccccc4c3C)ncn2)ccc1C(=O)O

>  <units>
µM

>  <IC50>
0.098

$$$$
>  <compound>
CCOc1cc(-c2cc(NCCc3cc4ccsc4c(F)c3OC)ncn2)ccc1CC(=O)O

>  <units>
µM

>  <IC50>
0.101

$$$$
>  <compound>
CCCc1cc(-c2cc(NCCc3ccc4sccc4c3F)ncn2)ccc1C(=O)O

>  <units>
µM

>  <IC50>
0.066

$$$$
>  <compound>
O=C(O)c1ccc(-c2cc(NCCc3ccc4sccc4c3F)ncn2)cc1OC1CCC1

>  <units>
µM

>  <IC50>
0.047

$$$$
>  <compound>
COc1cc(-c2cc(NCCc3ccc4sccc4c3F)ncn2)ccc1CC(=O)O

>  <units>
µM

>  <IC50>
0.222

$$$$

* * *

- assay-system: Prostaglandin E2 receptor EP2 subtype (Homo sapiens, UniProt P43116)
- Sequence (P43116 whole entry): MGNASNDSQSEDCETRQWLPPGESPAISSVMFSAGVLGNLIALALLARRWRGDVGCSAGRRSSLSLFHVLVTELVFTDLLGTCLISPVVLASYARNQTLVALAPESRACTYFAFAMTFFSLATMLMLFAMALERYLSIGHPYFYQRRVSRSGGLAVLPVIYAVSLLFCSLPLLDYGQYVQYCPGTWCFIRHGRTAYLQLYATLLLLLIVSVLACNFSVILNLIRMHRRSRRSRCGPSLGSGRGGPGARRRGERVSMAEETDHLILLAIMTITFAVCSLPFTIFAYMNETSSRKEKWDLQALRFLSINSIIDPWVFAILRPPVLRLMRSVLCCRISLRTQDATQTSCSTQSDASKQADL
- protocol-text: hEP2 cAMP Assay
pIC50: −log10 of the molar value.
Could you label it 1 if measured pIC50 is 7 or higher, and -1 otherwise?

>  <molecule>
CCOc1cc(-c2cc(NCCc3ccc4sccc4c3F)ncn2)cc(F)c1CC(=O)O

>  <assay-system>
Prostaglandin E2 receptor EP2 subtype (Homo sapiens, UniProt P43116)

>  <class-name>
-1

$$$$
>  <molecule>
CCOc1cc(-c2cc(NCCc3c(OC)cc4ccccc4c3C)ncn2)ccc1OCCC(=O)O

>  <assay-system>
Prostaglandin E2 receptor EP2 subtype (Homo sapiens, UniProt P43116)

>  <class-name>
-1

$$$$
>  <molecule>
CCCc1cc(-c2cc(NCCc3cc4c(cc3OCC)OCCO4)ncn2)ccc1CC(=O)O

>  <assay-system>
Prostaglandin E2 receptor EP2 subtype (Homo sapiens, UniProt P43116)

>  <class-name>
1

$$$$
>  <molecule>
COc1cc2c(c(C)c1CCNc1cc(-c3ccc(CC(=O)O)c(OC(F)F)c3)ncn1)OCCO2

>  <assay-system>
Prostaglandin E2 receptor EP2 subtype (Homo sapiens, UniProt P43116)

>  <class-name>
1

$$$$
>  <molecule>
COc1cc(-c2cc(NCCc3c(OC)cc4ccccc4c3C)ncn2)ccc1CC(=O)O

>  <assay-system>
Prostaglandin E2 receptor EP2 subtype (Homo sapiens, UniProt P43116)

>  <class-name>
-1

$$$$
>  <molecule>
CCOc1cc(-c2cc(NCCc3cc4ccsc4cc3OC)ncn2)cc(F)c1CC(=O)O

>  <assay-system>
Prostaglandin E2 receptor EP2 subtype (Homo sapiens, UniProt P43116)

>  <class-name>
1

$$$$

* * *

- assay-system: Prostaglandin E2 receptor EP4 subtype (Homo sapiens)
- Sequence (P35408 whole entry): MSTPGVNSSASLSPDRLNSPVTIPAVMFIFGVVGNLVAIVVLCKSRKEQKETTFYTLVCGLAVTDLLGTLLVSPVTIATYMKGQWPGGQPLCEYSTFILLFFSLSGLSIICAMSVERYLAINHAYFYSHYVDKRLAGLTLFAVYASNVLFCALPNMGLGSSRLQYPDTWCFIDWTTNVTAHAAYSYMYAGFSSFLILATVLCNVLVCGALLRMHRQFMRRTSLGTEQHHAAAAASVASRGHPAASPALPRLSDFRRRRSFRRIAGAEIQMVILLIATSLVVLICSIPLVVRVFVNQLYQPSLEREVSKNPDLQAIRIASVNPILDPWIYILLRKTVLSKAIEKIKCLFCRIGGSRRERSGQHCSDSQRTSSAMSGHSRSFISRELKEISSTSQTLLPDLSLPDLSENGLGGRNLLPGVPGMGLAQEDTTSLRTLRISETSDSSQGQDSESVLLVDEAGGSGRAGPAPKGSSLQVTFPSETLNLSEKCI
- protocol-text: hEP4 cAMP Assay
IC50 by entry:

>  <compound>
COc1cc2ccccc2c(C)c1CCNc1cc(-c2ccc(C(=O)O)c(OC3CC3)c2)ncn1 [US11839613, Example 448]

>  <IC50 [nM]>
26

$$$$
>  <compound>
C#Cc1cc2c(cc1CCNc1cc(-c3ccc(CC(=O)O)c(CCC)c3)ncn1)OCCO2 [US11839613, Example 440]

>  <IC50 [nM]>
65

$$$$
>  <compound>
COc1c(CCNc2cc(-c3ccc(C(=O)O)c(SC)c3)ncn2)cc2ccsc2c1F [US11839613, Example 405]

>  <IC50 [nM]>
18

$$$$
>  <compound>
COc1cc(-c2cc(NCCc3c(OC)cc4ccccc4c3C)ncn2)ccc1CC(=O)O [US11839613, Example 384]

>  <IC50 [nM]>
59

$$$$

* * *

- assay-system: Prostaglandin E2 receptor EP4 subtype (Homo sapiens)
- protocol-text: hEP4 cAMP Assay
The following molecules are listed with their measured IC50 values.
metric: IC50 (nM)

>  <molecule>
CCCc1cc(-c2cc(NCCc3ccc4sccc4c3F)ncn2)ccc1C(C)C(=O)O (racemic) [US11839613, Example 482]

>  <units>
nM

>  <result-value>
323

$$$$
>  <molecule>
COc1cc(-c2cc(NCCc3c(OC)cc4c(c3C)OCCO4)ncn2)ccc1CC(=O)O [US11839613, Example 434]

>  <units>
nM

>  <result-value>
95

$$$$
>  <molecule>
CCOc1cc(-c2cc(NCCc3ccc4sccc4c3F)ncn2)sc1C(=O)O [US11839613, Example 367]

>  <units>
nM

>  <result-value>
1

$$$$
>  <molecule>
CCOc1cc(-c2cc(NCCc3cc(F)c4sccc4c3)ncn2)sc1C(=O)O [US11839613, Example 362]

>  <units>
nM

>  <result-value>
1

$$$$

* * *

- assay-system: Prostaglandin E2 receptor EP2 subtype (Homo sapiens)
- protocol-text: hEP2 cAMP Assay
- Description: Cells are counted washed and resuspended in assay buffer (AB; HBSS, 20 mM HEPES, 0.2% BSA; 2 mM IBMX). […] Plate is pre-incubated 45 minutes at RT. […] Plate is incubated 30 minutes at RT.

>  <molecule>
CCOc1cc(-c2cc(NCCc3ccc4sccc4c3F)ncn2)sc1C(=O)O [US11839613, Example 367]

>  <IC50, nM>
6

$$$$
>  <molecule>
C#Cc1cc2c(cc1CCNc1cc(-c3ccc(CC(=O)O)c(CCC)c3)ncn1)OCCO2 [US11839613, Example 440]

>  <IC50, nM>
25

$$$$
>  <molecule>
CCOc1cc(-c2cc(NCCc3ccc4sccc4c3C)ncn2)cc(F)c1CC(=O)O [US11839613, Example 372]

>  <IC50, nM>
111

$$$$
>  <molecule>
CSc1cc(-c2cc(NCCc3ccc4scc(Cl)c4c3)ncn2)ccc1C(=O)O [US11839613, Example 429]

>  <IC50, nM>
66

$$$$
>  <molecule>
CCOc1cc2c(cc1CCNc1cc(-c3ccc(CC(=O)O)c(OC(C)C)c3)ncn1)OCCO2 [US11839613, Example 425]

>  <IC50, nM>
226

$$$$
>  <molecule>
COc1cc(-c2cc(NCCc3cc(F)c4sccc4c3)ncn2)ccc1OCCC(=O)O [US11839613, Example 438]

>  <IC50, nM>
708

$$$$
>  <molecule>
CCCc1cc(-c2cc(NCCc3c(OC)cc4c(c3C)OCCO4)ncn2)ccc1CC(=O)O [US11839613, Example 397]

>  <IC50, nM>
25

$$$$

* * *

IC50 values, listed per item
- assay-system: UniProt:P43116
- protocol-text: hEP2 cAMP Assay
metric: IC50 (nM)

>  <compound>
CCOc1cc(-c2cc(NCCc3cc4ccccc4cc3NC)ncn2)ccc1OCC(=O)O [US11839613, Example 274]

>  <result-value>
1180

$$$$
>  <compound>
CCOc1cc(-c2cc(NCCc3c(OC)cc4c(c3F)OCCO4)ncn2)ccc1C(=O)O [US11839613, Example 435]

>  <result-value>
28

$$$$
>  <compound>
COc1cc2sccc2cc1CCNc1cc(-c2ccc(CC(=O)O)c(OC)c2)ncn1 [US11839613, Example 381]

>  <result-value>
165

$$$$
>  <compound>
COc1c(CCNc2cc(-c3ccc(C(=O)O)c(CC(C)C)c3)ncn2)cc2ccsc2c1F [US11839613, Example 415]

>  <result-value>
106

$$$$
>  <compound>
CCOc1cc(-c2cc(NCCc3cc(F)c4sccc4c3)ncn2)ccc1OCCC(=O)O [US11839613, Example 422]

>  <result-value>
492

$$$$
>  <compound>
CCOc1cc(-c2cc(NCCc3ccc4scc(Cl)c4c3)ncn2)ccc1CC(=O)O [US11839613, Example 431]

>  <result-value>
460

$$$$
>  <compound>
CCCc1cc(-c2cc(NCCc3cc4c(cc3OC)OCCO4)ncn2)ccc1CC(=O)O [US11839613, Example 387]

>  <result-value>
205

$$$$
>  <compound>
CCCc1cc(-c2cc(NCCc3cc4c(cc3OC)OCCO4)ncn2)ccc1C(=O)O [US11839613, Example 379]

>  <result-value>
87

$$$$
>  <compound>
CCOc1cc(-c2cc(NCCc3cc(F)c4sccc4c3)ncn2)ccc1C(=O)O [US11839613, Example 361]

>  <result-value>
270

$$$$
>  <compound>
CCOc1cc(-c2cc(NCCc3ccc4sccc4c3F)ncn2)ccc1CC(=O)O [US11839613, Example 368]

>  <result-value>
119

$$$$
>  <compound>
COc1cc2ccccc2c(C)c1CCNc1cc(-c2ccc(C(=O)O)c(OC3CC3)c2)ncn1 [US11839613, Example 448]

>  <result-value>
55

$$$$
>  <compound>
O=C(O)c1ccc(-c2cc(NCCc3cc(F)c4sccc4c3)ncn2)cc1OC1CC1 [US11839613, Example 449]

>  <result-value>
131

$$$$
>  <compound>
CCOc1cc(-c2cc(NCCc3ccc4sccc4c3)ncn2)cc(F)c1CC(=O)O [US11839613, Example 370]

>  <result-value>
312

$$$$
>  <compound>
CCOc1cc(-c2cc(NCCc3ccc4sccc4c3F)ncn2)ccc1OCCC(=O)O [US11839613, Example 421]

>  <result-value>
247

$$$$
>  <compound>
CCOc1cc2c(cc1CCNc1cc(-c3cc(F)c(CC(=O)O)c(OCC)c3)ncn1)OCCO2 [US11839613, Example 403]

>  <result-value>
135

$$$$

These measurements were taken from BindingDB's records for patent US11839613.
